Answer each item with its documented inhibition.
# Assay Details: yeast lifespan-shortening chemical project counter-assay, dose-response inhibition of growth under permissive conditions (AID 850);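 note: growth read as optical density after one day of incubation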
# Experimental Conditions: Saccharomyces cerevisiae growth inhibition, permissive control; measured here: maximum growth inhibition; at 12.5 µM; stronger effect = higher value
Give bare numbers, in %.

Example molecules with recorded inhibition:
| Molecule | Quantity Name | Value Observed |
| --- | --- | --- |
| O=C(CCSc1nnc(-c2ccncc2)o1)Nc1ccc(Cl)cc1 | inhibition | 86.9 |
| O=c1oc2ccccc2c(N2CCCC2)c1CN1CCCC1 | inhibition | 11.7 |
| OC(Cn1cncn1)(c1ccccc1)c1ccccc1 | inhibition | 90.3 |

Okay, here is my list. What is inhibition for each of these?
1. COc1cccc(C(=O)O/N=C(\N)Cc2ccc(Cl)cc2)c1
2. CCOC(=O)c1ccc(-n2[nH]c(-c3ccccc3)cc2=O)cc1

Output:
1: 97.5; 2: 47.7

Okay, here is my list. What is inhibition for each of these?
1. Cc1onc(-c2ccccc2)c1C(=O)NC(=S)NNC(=O)c1ccc(O)cc1O
2. c1ccc(-n2c(-c3ccco3)nnc2-c2ccco2)cc1
3. O=C(CC(=O)c1cc(Cl)ccc1O)c1ccccc1
4. CC(C)(C)C(O)C(Oc1ccc(Cl)cc1)n1cncn1 (stereo not given)
5. Cc1cc(C)cc(NS(=O)(=O)c2cnc(Cl)c(Cl)c2)c1

Output:
1. 44.7
2. 22.7
3. 24.9
4. 95.1
5. 19.5
